Assignment: determine reported LE (ligand efficiency) for the given compounds.
Molecular target: WDR5 (Homo sapiens)
Construct: hexahistidine-SUMO (N, cleaved yes); made in house; host or cells: E. coli BL21-CodonPlus-RIL
Assay: SPR binding of compounds to captured biotinylated WDR5, 1:1 steady-state affinity fit
Conditions: from SPR KD
Provide the reading as a plain figure in kcal·mol^−1·heavy atom^−1.

Reported LE (ligand efficiency), compound COC(CCc1nc(CO)c[nH]1)c1ccccc1 (stereo not drawn) [Compound 17] : ____
0.35

And then Cc1nc(CO)c[nH]1 [Compound 2, (2-methyl-imidazol-4-yl)methanol] , what is it?
0.61

Same thing, different compound: OCc1c[nH]c(CCCc2ccccc2)n1 [Compound 16]
0.33

Cc1ncc[nH]1 [Compound 6, 2-methyl imidazole] ?
0.60

Would you mind doing CCCCc1ncc(CO)[nH]1 [Compound 1, (2-butyl-1H-imidazol-5-yl)methanol] as well?
0.41

Then COC(=O)NCCCCc1ncc(CO)[nH]1.O=C(O)C(F)(F)F [Compound 32] ?
0.39
